# testedSystem: Cathepsin D (Homo sapiens, UniProt P07339)
# Sequence (P07339 65-162 limits assumed): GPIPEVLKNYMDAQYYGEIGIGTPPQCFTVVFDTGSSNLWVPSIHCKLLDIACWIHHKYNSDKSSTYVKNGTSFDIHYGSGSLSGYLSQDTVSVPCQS
# Sequence (P07339 169-412 limits assumed): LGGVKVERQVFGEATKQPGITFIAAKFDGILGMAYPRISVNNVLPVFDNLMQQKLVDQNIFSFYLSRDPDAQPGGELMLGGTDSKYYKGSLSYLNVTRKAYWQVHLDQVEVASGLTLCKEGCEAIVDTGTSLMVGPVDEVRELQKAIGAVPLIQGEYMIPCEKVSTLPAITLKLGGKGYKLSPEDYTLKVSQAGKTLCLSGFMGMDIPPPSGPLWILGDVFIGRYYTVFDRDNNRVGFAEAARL
# testDescription: Inhibition of recombinant human liver Cathepsin D using Mca-Gly-Lys-Pro-Ile-Leu-Phe-Phe-Arg-Leu-Lys-(Dnp)-D-Arg-NH2 as substrate incubated for 120 mins by fluorescence assay
measureName: IC50 (µM)

- smi: "COC(=O)[C@@H]1CCCN1C(=O)[C@@H](Cc1ccc(O)cc1)N(C)C(=O)[C@H](C)NC(=O)[C@H](CC(C)C)NC(=O)C[C@H](O)[C@H](Cc1ccccc1)NC(=O)[C@H](CCC(N)=O)N(C)C(=O)[C@@H](NC(=O)OCc1ccccc1)C(C)C"
  testedSystem: "Cathepsin D (Homo sapiens, UniProt P07339)"
  reportedResult: 0.000178
- smi: "CC(C)C[C@H](NC(=O)C[C@H](O)[C@H](Cc1ccccc1)NC(=O)[C@H](CCC(N)=O)N(C)C(=O)[C@@H](NC(=O)OCc1ccccc1)C(C)C)C(=O)N[C@@H](C)C(=O)N(C)[C@H](Cc1ccccc1)C(=O)N1CCC[C@H]1C(=O)O"
  testedSystem: "Cathepsin D (Homo sapiens, UniProt P07339)"
  reportedResult: 0.00489
- smi: "COC(=O)[C@@H]1CCCN1C(=O)[C@@H](Cc1ccc(OC(C)(C)C)cc1)N(C)C(=O)[C@H](C)NC(=O)[C@H](CC(C)C)NC(=O)C[C@H](O)[C@H](Cc1ccccc1)NC(=O)[C@H](CCC(N)=O)N(C)C(=O)[C@@H](NC(=O)OCc1ccccc1)C(C)C"
  testedSystem: "Cathepsin D (Homo sapiens, UniProt P07339)"
  reportedResult: 0.018
- smi: "CC(C)C[C@H](NC(=O)C[C@H](O)[C@H](Cc1ccccc1)NC(=O)[C@H](CCC(N)=O)N(C)C(=O)[C@@H](NC(=O)OCc1ccccc1)C(C)C)C(=O)N[C@@H](C)C(=O)N(C)[C@H](Cc1ccc(OC(C)(C)C)cc1)C(=O)N1CCC[C@H]1C(=O)O"
  testedSystem: "Cathepsin D (Homo sapiens, UniProt P07339)"
  reportedResult: 0.019
